- Tested on: M14 melanoma
- test-name: NCI tumour cell line growth inhibition, 48 h
quantity-kind: TGI

Answered cases to consult:
Cc1ccccc1S(=O)(=O)OC1NS(=O)(=O)c2ccccc21 (stereo not given): > 100 µM
Cc1ccc2c(c1)C(=O)C1(Cc3ccccc3C1=O)C2 (stereo not given): > 100 µM
CS(=O)c1ncc2c(n1)-c1ccccc1OC2 (stereo not given): > 100 µM

Answer for every listed entry: what is its TGI? The entries follow.
1. Cc1cc(I)cc(CN(C)CCCN2CCCCC2)c1O
2. C=CCSc1nnc2cc(CN3CCCC3)c(-c3ccc(Cl)cc3)nn12
3. Cc1cn(C2CC(O)C(CO)O2)c(=O)[nH]c1=O (stereo not given)
4. CC1OC(OC2C(OC(=O)[C@]34CCC(C)(C)C[C@H]3C3=CC[C@@H]5[C@@]6(C)CC[C@H](OC7OC(C(=O)O)C(O)C(O)C7O)C(C)(C)[C@@H]6CC[C@@]5(C)[C@]3(C)C[C@H]4O)OCC(O)C2O)C(O)C(OC2OCC(O)(CO)C2O)C1OC1OCC(O)C(O)C1O (stereo not given in full)
5. CN1CSC(=S)N(c2c3ccccc3nc3ccc(Br)cc23)C1

Result block:
["27.5 µM", "34.7 µM", "> 5000 µM", "23.3 µM", "26.9 µM"]

Answer for every listed entry: what is its TGI? The entries follow.
1. CC(C)OP(=O)(OC(C)C)C(=NCCN=C(NNc1ccc([N+](=O)[O-])cc1)P(=O)(OC(C)C)OC(C)C)NNc1ccc([N+](=O)[O-])cc1
2. COC(=O)C1CCC(=O)N1C(c1ccc(OC)cc1)c1ccc2c(c1)OCO2 (stereo not given)

Result block:
> 100 µM
> 100 µM

---

- System: ACHN renal
- test-name: NCI tumour cell line growth inhibition, 48 h
Please go through the items and note down their TGI.

Answered cases to consult:
COc1cccc2c(=O)oc(-c3ccc(C(C)(C)C)cc3)nc12: > 100 µM
O=C(CCc1nnc2sc(-c3ccc(Cl)cc3Cl)nn12)c1nc2ncccc2[nH]1: 2.91 µM
CCNC(=O)Cc1nc2c(N)ncnc2n1C1OC(CO)C(O)C1O (stereo unspecified): > 100 µM
COc1ccc(-c2nc(SCC(=O)N/N=C/c3ccc(N(C)C)cc3)[nH]c2-c2ccc(OC)cc2)cc1: > 100 µM
COc1ccc(-c2nnc(COc3ccc(NC(=O)Nc4cc(C(F)(F)F)cc(C(F)(F)F)c4)cc3F)o2)cc1: 10.1 µM
CS(=O)c1ncc2c(n1)-c1ccccc1OC2 (stereo unspecified): > 100 µM

Answer for every listed entry: what is its TGI? The entries follow.
1. CC[C@H](Nc1ncnc2nc[nH]c12)c1oc2ccccc2c(=O)c1-c1cccc(F)c1
2. CN(C)c1ccc(/C=C(\NC(=O)c2ccccc2)c2nc3ncncc3[nH]2)cc1
3. CSc1nc(NC2OCC(OC(C)=O)C(OC(C)=O)C2OC(C)=O)c(N=CC=Nc2c(NC3OCC(OC(C)=O)C(OC(C)=O)C3OC(C)=O)nc(SC)[nH]c2=O)c(=O)[nH]1 (stereo unspecified)
4. Clc1ccc(C(c2ccc(Cl)cc2)c2ccccn2)cc1

Result block:
> 100 µM
> 100 µM
> 88.7 µM
45.9 µM

Answer for every listed entry: what is its TGI? The entries follow.
1. Cc1ccc(C(=C2Sc3ccccc3S2)C(=C2Sc3ccccc3S2)c2ccc(C)s2)s1
2. C=CCSc1nnc2cc(CN3CCCC3)c(-c3ccc(Cl)cc3)nn12
3. CC1=NS(=O)(=O)c2ccccc2N1
4. CN(C)c1nc(=Nc2ccc(N=c3nc(N(C)C)ss3)cc2)ss1
5. C/C(=N\NC(=S)NC(CCC(=O)O)C(=O)O)c1ccccn1 (stereo unspecified)
6. Cc1cc2c3c(nc4ccccc42)C(=O)c2ccccc2-c3n1
7. COC(OC)C(C)CC(=O)N(C)C (stereo unspecified)
8. CCOC(=O)NC(=O)c1cn(CCCO)c(=O)[nH]c1=O

Result block:
1. > 100 µM
2. 38.3 µM
3. > 100 µM
4. > 100 µM
5. > 100 µM
6. > 100 µM
7. > 100 µM
8. > 100 µM

Answer for every listed entry: what is its TGI? The entries follow.
1. Cc1ccccc1S(=O)(=O)OC1NS(=O)(=O)c2ccccc21 (stereo unspecified)
2. COc1cc(OC)cc(-c2cc(=O)c3c(OC)c(OC)c(OC)c(OC)c3o2)c1
3. NS(=O)(=O)c1cc(Cl)c(NC(=S)NC(=O)Nc2ccc(Cl)c(Cl)c2)c(Cl)c1

Result block:
1. > 100 µM
2. > 100 µM
3. > 100 µM
